molecular target: CDC2-like kinase-1 (CLK1) (Mus musculus, UniProt P22518); construct: Recombinant GST-CLK1; assay: radiometric kinase assay with […] [gamma-33P] ATP, dose-response (n = […])
Sequence (P22518 whole entry): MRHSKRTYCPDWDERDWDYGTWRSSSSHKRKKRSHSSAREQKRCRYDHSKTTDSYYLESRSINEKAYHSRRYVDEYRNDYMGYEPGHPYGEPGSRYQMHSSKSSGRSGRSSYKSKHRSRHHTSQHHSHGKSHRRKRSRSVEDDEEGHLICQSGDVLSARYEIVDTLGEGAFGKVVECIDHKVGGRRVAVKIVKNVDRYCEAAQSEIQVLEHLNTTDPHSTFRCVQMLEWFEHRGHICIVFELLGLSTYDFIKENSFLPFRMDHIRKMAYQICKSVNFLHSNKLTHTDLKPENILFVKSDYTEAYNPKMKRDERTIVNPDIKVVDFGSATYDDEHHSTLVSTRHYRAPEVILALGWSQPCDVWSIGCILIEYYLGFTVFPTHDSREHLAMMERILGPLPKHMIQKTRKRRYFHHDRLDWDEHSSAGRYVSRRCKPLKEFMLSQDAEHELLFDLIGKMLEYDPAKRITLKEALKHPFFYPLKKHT
METRIC_NAME: IC50 (µM)
Unit µM implied. Number only.

Prompt: Could you tell me which IC50 is on file for CC(C)=CCc1c(O)c(O)c(O)c2c1CC(=O)OC2C (stereo not shown) [compound 3, dihydrosecofuscin] ?
Response: 56.1

All figures here come from paper PMC5408257.
